In vitro activity (%) compared with native peptide: vs Glucagon listing for selected binders.
target: human GCG receptor (human, UniProt P47871 26-477); assay: cell-based or functional assay
Sequence (P47871 26-477): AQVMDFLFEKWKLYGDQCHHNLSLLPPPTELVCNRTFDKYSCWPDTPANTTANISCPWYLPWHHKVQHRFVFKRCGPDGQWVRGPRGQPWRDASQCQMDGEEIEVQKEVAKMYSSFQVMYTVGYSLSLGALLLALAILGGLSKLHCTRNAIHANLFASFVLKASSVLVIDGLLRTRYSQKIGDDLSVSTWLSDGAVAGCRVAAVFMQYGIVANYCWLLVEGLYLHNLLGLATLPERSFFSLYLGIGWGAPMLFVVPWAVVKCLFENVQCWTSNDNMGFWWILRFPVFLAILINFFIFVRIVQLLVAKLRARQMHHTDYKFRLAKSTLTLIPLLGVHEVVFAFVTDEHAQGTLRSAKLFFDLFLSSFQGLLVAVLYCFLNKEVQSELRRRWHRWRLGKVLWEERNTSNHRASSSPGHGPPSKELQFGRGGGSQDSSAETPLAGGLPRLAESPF
Positions of bridges follow the written chain, without caps; N, C: chain ends. Non-standard residues stand in square brackets, D forms with d. No end group written: not given here. Aib = CC(C)(N)C(=O)O
Field: numeric (%). Do not append units.

>  <binder>
Y[Aib]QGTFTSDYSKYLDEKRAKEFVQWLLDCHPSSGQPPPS (bridge 16-20; not fully specified) [triple agonist of SEQ ID NO: 97]

>  <measurement>
62.8

$$$$
>  <binder>
H[Aib]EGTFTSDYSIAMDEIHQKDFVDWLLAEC (bridge 16-20; not fully specified) [triple agonist of SEQ ID NO: 54]

>  <measurement>
1.4

$$$$
>  <binder>
H[Aib]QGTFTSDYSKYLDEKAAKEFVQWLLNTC (bridge 16-20; not fully specified) [triple agonist of SEQ ID NO: 29]

>  <measurement>
6

$$$$

Continue with the next binder.
State the recorded In vitro activity (%) compared with native peptide: vs Glucagon for this entry: H[Aib]QGTFTSDYSKYLDERACQDFVQWLLDQGGPSSGAPPPS (not fully specified) [triple agonist of SEQ ID NO: 27]
0.8
